All figures here come from the supplement of paper PMC10567573.

B1: FBXO3 (parent)
chain: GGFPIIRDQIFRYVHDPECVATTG

Variants of: B1
Measurement Description: protein stability index of a GFP-peptide fusion (GPS, HEK-293T) (PSI 1-6); higher = more stable;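 note: lentivirally expressed fusions sorted by FACS into six bins by GFP to DsRed ratio, PSI derived from sequencing read proportions per bin multiplied by bin number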
Protocol Conditions: c terminus: a fixed tail appended
Reported Endpoint: protein stability index

variant_annotation=T23C readout_value=1.91
variant_annotation=V20H readout_value=2.01
variant_annotation=G1R readout_value=2.16
variant_annotation=G2L readout_value=1.86
variant_annotation=F11E readout_value=3.58
variant_annotation=R12G readout_value=3.12
variant_annotation=Y13A readout_value=3.44
variant_annotation=D16V readout_value=2.05
variant_annotation=F11Y readout_value=2.76
variant_annotation=I10H readout_value=3.27
variant_annotation=C19G readout_value=1.73
variant_annotation=I10K readout_value=3.07
variant_annotation=Q9W readout_value=2.29
variant_annotation=V20Y readout_value=1.9
variant_annotation=P4T readout_value=1.67
variant_annotation=V20E readout_value=2.22
variant_annotation=H15A readout_value=1.95
variant_annotation=T22V readout_value=1.67
variant_annotation=D16P readout_value=2.47
variant_annotation=T23V readout_value=1.61
variant_annotation=F11K readout_value=2.85
variant_annotation=E18N readout_value=1.8
